- SYSTEM UNDER TEST: T1, ZFP SBS#1044 (synthetic)
- T1 chain: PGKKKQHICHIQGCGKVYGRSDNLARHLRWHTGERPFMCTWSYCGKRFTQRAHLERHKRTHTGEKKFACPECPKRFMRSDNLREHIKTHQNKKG
- PROTOCOL TEXT: EMSA
- CONDITION DESCRIPTION: tags: MBP fusion
MEASUREMENT NAME: pKd
The scale used: pKd is minus the common logarithm of the concentration in molar units.

Would you kindly share the measured pKd for CAGGGAGAG (dsDNA) DNA 1: CAGGGAGAG DNA 2: CTCTCCCTG ?
8.97
